Quick list: % inhibition per entry.
System: human PKK mRNA
Assay: Antisense inhibition of human PKK mRNA in HepaRG cells, 1,000 nM, MOE/deoxy/cEt oligonucleotides (Example 3)
Assay type: cell-based
Conditions: Table 30; human PKK mRNA, HepaRG cells, 1,000 nM antisense oligonucleotide
Strand notation (5' to 3'): a small letter for the sugar, then the base; units joined by * are phosphorothioate-linked, units joined directly phosphodiester-linked; [ ] holds rarer units or linkages, { } end groups; capitals alone tell only the bases. e = 2'-O-(2-methoxyethyl) (MOE); k = constrained ethyl (cEt); [5mC] = 5-methylcytosine; d = 2'-deoxy (DNA)
// note: answer is a bare numeric in %

>  <substance>
548389 (eT*eT*kG*dA*dG*dG*dA*dA*dA*dG*dA*d[5mC]*d[5mC]*kT*kG*e[5mC]; antisense) [compound 548389]

>  <reported-metric>
% inhibition

>  <quantitative-result>
11

$$$$
>  <substance>
547747 (eT*e[5mC]*kA*d[5mC]*dT*dG*dT*dA*d[5mC]*dT*dA*dG*dT*kT*kT*e[5mC]) [compound 547747]

>  <reported-metric>
% inhibition

>  <quantitative-result>
64

$$$$
>  <substance>
548403 (eG*eA*kG*dT*dA*d[5mC]*dA*dT*dT*dG*dG*dG*d[5mC]*k[5mC]*k[5mC]*eA; antisense) [compound 548403]

>  <reported-metric>
% inhibition

>  <quantitative-result>
25

$$$$
>  <substance>
548441 (antisense eT*e[5mC]*k[5mC]*dT*dA*dT*dA*dA*d[5mC]*dA*dG*dT*dA*kT*k[5mC]*eA) [compound 548441]

>  <reported-metric>
% inhibition

>  <quantitative-result>
42

$$$$

Entry 548452 (eT*eA*kT*dA*dT*d[5mC]*dA*d[5mC]*dT*dG*dT*dA*d[5mC]*k[5mC]*kT*eA; antisense) [compound 548452] : reported % inhibition = ? 65

Next up: 548385 (eT*e[5mC]*k[5mC]*dT*dG*dG*dA*dG*dG*d[5mC]*dA*d[5mC]*d[5mC]*kA*kA*eT; antisense) [compound 548385] 0

* * *

Tested on: human PKK mRNA
Experiment: Antisense inhibition of human PKK mRNA in HepaRG cells, 1,000 nM, MOE/deoxy/cEt oligonucleotides (Example 3)
Format: cell-based
Details: HepaRG cells, electroporation with 1,000 nM antisense oligonucleotide, approximately 24 hours, primer probe set RTS3454, relative to untreated control cells; experiment of Table 24
Strand notation (5' to 3'): a small letter for the sugar, then the base; units joined by * are phosphorothioate-linked, units joined directly phosphodiester-linked; [ ] holds rarer units or linkages, { } end groups; capitals alone tell only the bases. e = 2'-O-(2-methoxyethyl) (MOE); k = constrained ethyl (cEt); [5mC] = 5-methylcytosine; d = 2'-deoxy (DNA)
substances and their reported % inhibition

>  <substance>
548067 (e[5mC]*eA*kG*dT*dT*dG*dG*dT*dA*dT*dA*dA*dA*kT*kT*eG; antisense) [compound 548067]

>  <% inhibition>
18%

$$$$
>  <substance>
548045 (eT*eT*kA*dT*dA*dG*dT*dT*dT*dT*dG*dG*dT*kG*kA*eA; antisense) [compound 548045]

>  <% inhibition>
0%

$$$$
>  <substance>
548063 (eG*eT*kA*dT*dA*dA*dA*dT*dT*dG*dT*dG*d[5mC]*kT*kT*eG; antisense) [compound 548063]

>  <% inhibition>
35%

$$$$
>  <substance>
547997 (antisense eT*eT*kG*dT*dG*dT*d[5mC]*d[5mC]*d[5mC]*dA*dT*dA*d[5mC]*kG*k[5mC]*eA) [compound 547997]

>  <% inhibition>
89%

$$$$
>  <substance>
548050 (eA*eG*kG*d[5mC]*dG*dA*dT*dA*dT*d[5mC]*dA*dT*dG*kA*kT*eT; antisense) [compound 548050]

>  <% inhibition>
37%

$$$$
>  <substance>
548040 (eG*eT*kG*dA*dG*dA*dA*dA*dG*dG*dT*dG*dT*kA*kT*e[5mC]; antisense) [compound 548040]

>  <% inhibition>
62%

$$$$

--- query ---
Quick one: % inhibition of 548072 (eT*eT*kT*d[5mC]*dT*d[5mC]*d[5mC]*dT*dT*d[5mC]*dG*dA*dG*kA*kA*eG; antisense) [compound 548072] ? 33%
